Data origin: patent US20150307520A1

testSystem: p110δ/p85α (Homo sapiens, UniProt O00329)
Sequence (O00329 whole entry): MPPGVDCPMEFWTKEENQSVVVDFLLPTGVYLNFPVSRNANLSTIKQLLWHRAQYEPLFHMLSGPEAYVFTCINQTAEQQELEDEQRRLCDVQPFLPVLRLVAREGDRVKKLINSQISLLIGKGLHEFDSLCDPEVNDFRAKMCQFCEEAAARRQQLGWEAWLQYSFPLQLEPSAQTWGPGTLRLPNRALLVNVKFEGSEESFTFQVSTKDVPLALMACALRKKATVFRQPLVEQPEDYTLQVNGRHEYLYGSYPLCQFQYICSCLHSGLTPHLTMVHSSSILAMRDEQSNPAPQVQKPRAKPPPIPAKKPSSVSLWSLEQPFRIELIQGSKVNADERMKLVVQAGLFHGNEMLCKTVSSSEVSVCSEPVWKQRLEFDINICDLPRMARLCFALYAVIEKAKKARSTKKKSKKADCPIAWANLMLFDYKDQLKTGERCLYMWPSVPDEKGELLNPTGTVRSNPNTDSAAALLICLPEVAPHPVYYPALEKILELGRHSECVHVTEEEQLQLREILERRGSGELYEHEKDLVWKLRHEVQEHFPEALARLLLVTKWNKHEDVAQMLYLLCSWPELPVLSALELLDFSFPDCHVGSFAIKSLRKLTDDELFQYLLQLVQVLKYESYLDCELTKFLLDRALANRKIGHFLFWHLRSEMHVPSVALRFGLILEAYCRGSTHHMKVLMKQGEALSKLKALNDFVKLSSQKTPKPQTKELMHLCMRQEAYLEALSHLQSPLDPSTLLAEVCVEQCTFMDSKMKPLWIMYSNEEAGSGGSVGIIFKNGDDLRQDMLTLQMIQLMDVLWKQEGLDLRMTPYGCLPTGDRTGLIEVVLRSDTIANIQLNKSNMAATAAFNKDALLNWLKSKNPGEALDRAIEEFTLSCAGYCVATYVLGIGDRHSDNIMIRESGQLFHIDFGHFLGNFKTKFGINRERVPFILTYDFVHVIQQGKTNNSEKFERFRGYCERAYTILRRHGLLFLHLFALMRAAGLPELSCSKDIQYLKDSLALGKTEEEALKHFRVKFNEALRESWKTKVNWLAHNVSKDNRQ
Sequence (P27986 whole entry partner): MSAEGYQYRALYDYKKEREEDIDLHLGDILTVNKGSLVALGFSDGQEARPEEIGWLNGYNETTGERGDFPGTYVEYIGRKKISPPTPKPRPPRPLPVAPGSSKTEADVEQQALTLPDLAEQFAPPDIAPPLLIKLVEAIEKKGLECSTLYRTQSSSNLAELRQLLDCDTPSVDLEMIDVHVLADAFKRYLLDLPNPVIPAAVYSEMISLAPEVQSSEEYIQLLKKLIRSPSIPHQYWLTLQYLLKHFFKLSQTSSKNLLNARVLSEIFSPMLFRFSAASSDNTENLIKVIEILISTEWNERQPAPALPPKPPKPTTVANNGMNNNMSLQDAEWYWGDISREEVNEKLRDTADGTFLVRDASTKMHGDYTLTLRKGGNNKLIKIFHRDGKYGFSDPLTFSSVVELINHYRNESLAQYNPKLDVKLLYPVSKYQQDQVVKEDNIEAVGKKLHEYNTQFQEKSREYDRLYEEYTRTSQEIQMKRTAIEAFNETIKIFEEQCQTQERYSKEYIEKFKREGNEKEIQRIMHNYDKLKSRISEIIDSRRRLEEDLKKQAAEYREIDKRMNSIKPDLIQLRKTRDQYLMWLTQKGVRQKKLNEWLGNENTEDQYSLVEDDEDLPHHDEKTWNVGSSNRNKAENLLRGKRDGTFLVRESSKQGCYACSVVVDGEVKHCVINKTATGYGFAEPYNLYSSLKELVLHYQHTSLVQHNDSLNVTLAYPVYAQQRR
experimentDescription: Transcreener KINASE Assay, kinase inhibition of p110δ/p85α
Type: biochemical
conditionInfo: 1 uM test compound
Here the recorded PI3Kδ IH % @ 1 uM is given for each entry.

compound | PI3Kδ IH % @ 1 uM
CC(Nc1nc(N)ncc1C#N)c1cn2ccc(Cl)c2c(=O)n1-c1ccccc1 (stereo not drawn) [Compound 271] | >100%
COc1ncc(-c2c[nH]c3ncnc(N4CC[C@H]4c4nn5ccc(F)c5c(=O)n4-c4ccccc4)c23)cn1 [Compound 181] | >100%
N#Cc1c(N)ncnc1N1CCC[C@H]1c1nn2ccc(Cl)c2c(=O)n1Cc1ccccn1 [Compound 69] | 99.9%
CC(=O)c1cnc(N)nc1N1C[C@H](C)[C@H]1c1nn2ccc(C(F)(F)F)c2c(=O)n1-c1ccccc1 [Compound 489] | >100%
Cn1c([C@@H]2CCCN2c2ncnc3[nH]cc(C#N)c23)nn2ccc(Cl)c2c1=O [Compound 63] | 97.7%
O=c1c2c(Cl)ccn2nc([C@@H]2COCCN2c2ncnc3[nH]cnc23)n1-c1ccccc1 [Compound 153] | >100%

(Q) Given the compound N#Cc1c[nH]c2ncnc(N3CCC[C@H]3c3nn4ccc(Cl)c4c(=O)n3CC3CC3)c12 [Compound 257] , what is its reported PI3Kδ IH % @ 1 uM?
(A) >100%

(Q) Given the compound O=c1c2c(Cl)ccn2nc([C@@H]2CCCN2c2ncnc3[nH]cnc23)n1-c1ccccc1 [Compound 26] , what is its reported PI3Kδ IH % @ 1 uM?
(A) >100%

(Q) Given the compound CC(=O)c1cnc(N)nc1N[C@@H](C)c1cc2ncc(Cl)n2c(=O)n1-c1ccccc1 [Compound 447] , what is its reported PI3Kδ IH % @ 1 uM?
(A) 99.5%

====

testSystem: p110δ/p85α (Homo sapiens)
experimentDescription: Transcreener KINASE Assay, kinase inhibition of p110δ/p85α
conditionInfo: read-out: PI3Kδ IC50
pIC50: −log10 of the molar value.
quantityKind: pIC50

P: N#C[C@@H]1C[C@@H](c2nn3ccc(Cl)c3c(=O)n2-c2ccccc2)N(c2ncnc3[nH]cnc23)C1
Q: Nc1ccc(-c2n[nH]c3ncnc(N4CCC[C@H]4c4nn5ccc(Cl)c5c(=O)n4-c4ccccc4)c23)cn1
R: CC(C)Cn1c([C@@H]2CCN2c2nc(N)ncc2C#N)nn2ccc(Cl)c2c1=O
S: Cc1ccn2nc([C@@H]3CCCN3c3ncnc4[nH]cnc34)n(-c3ccccc3)c(=O)c12
T: Cc1nc(N)nc(N2C[C@H](C)[C@H]2c2nn3ccc(Cl)c3c(=O)n2-c2cccc(F)c2)c1C#N
(Q) Provide the items ranked by increasing pIC50. Provide your answer as the labels ordered per the instruction.
(A) R, P, Q, S, T
(R: 7.40, P: 7.77, Q: 8.30, S: 8.70, T: 9.40)

P: CC(=O)c1c[nH]c2ncnc(N3CC[C@H]3c3nn4ccc(Cl)c4c(=O)n3-c3ccccn3)c12
Q: N#Cc1c[nH]c2ncnc(N3C[C@H](O)C[C@H]3c3nn4ccc(Cl)c4c(=O)n3-c3ccccc3)c12
R: CC(=O)c1c[nH]c2ncnc(NC(C)c3cn4ccc(Cl)c4c(=O)n3-c3cccc(F)c3)c12 (stereo not shown)
S: C[C@H]1CN(c2nc(N)ncc2C#N)C1c1nn2ccc(F)c2c(=O)n1-c1ccccc1 (stereo partly shown)
(Q) Rank items: key pIC50, increasing. Provide your answer as the labels ordered per the instruction.
(A) P, S, Q, R
